system: K-562 leukemia; assay: NCI-60 one-dose screen, 48 h; conditions: 10 µM
This is part of a sample that, as a whole, favours compounds with a hit. Of some 83,000 tested, about 20% had one in any assay. Calls of active or inactive are those of the source. Rule for the calls: active = growth percent below 10; inactive = the rest.
Outcome codes: TRUE (active), FALSE (inactive)

- compound: "O=C1CC(=O)N(C(=O)c2nn(-c3ccc(Cl)cc3)cc2O)N1"
  label-value: "TRUE"
- compound: "CSc1nc(S(C)(=O)=O)nc2[nH]c(=O)[nH]c12"
  label-value: "FALSE"
- compound: "C=CCN(CC=C)C(=O)[C@H](CC)[C@@H]1CC[C@@H](C)[C@@H]([C@H](C)[C@@H](O)[C@@H](C)C(=O)[C@H](CC)C2O[C@]3(C=C[C@@H](O)[C@]4(CC[C@@](C)([C@H]5CC[C@](O)(CC)[C@H](C)O5)O4)O3)[C@H](C)C[C@@H]2C)O1 (stereo partly drawn)"
  label-value: "FALSE"
- compound: "CCOC(=O)CN(c1sc(C)c(C)c1C(=O)OCC)S(=O)(=O)c1ccc(C)cc1"
  label-value: "FALSE"
- compound: "COc1ccc(-c2cc(-c3ccc(Cl)cc3)nc(SCCCCCCC(=O)NO)n2)cc1OC"
  label-value: "FALSE"
- compound: "COc1ccc(-c2nn(-c3cccc(Cl)c3)cc2-c2nc(N)[nH]c(=O)c2C#N)cc1"
  label-value: "FALSE"
- compound: "CN(C)CCOc1ccccc1NC1=C(Cl)C(=O)C(Nc2ccccc2OCCN(C)C)=C(Cl)C1=O"
  label-value: "TRUE"
- compound: "O=C(CCn1cnc2c(cc(-c3ccccc3)n2-c2ccccc2)c1=O)Nc1ccc(F)cc1"
  label-value: "FALSE"
